- TEST SUMMARY: Solubility in other solvents
- CONDITION INFO: ethanol, organic solvent or mixture, thermodynamic from solid
REPORTED ENDPOINT: solubility

Suppose we examine the compound COC(=O)[C@@H]1C[C@H](OC(C)=O)C(=O)[C@H]2[C@@]1(C)CC[C@H]1C(=O)O[C@H](c3ccoc3)C[C@]21C ; what solubility value has been reported?
> 1000 µg/mL

###

- TEST SUMMARY: Solubility in other solvents
- CONDITION INFO: 5% Vitamin E TPGS, aqueous with cosolvent or surfactant or cyclodextrin, thermodynamic from solid
REPORTED ENDPOINT: solubility

Suppose we examine the molecule COC(=O)[C@@H]1C[C@H](OC(C)=O)C(=O)[C@H]2[C@@]1(C)CC[C@H]1C(=O)O[C@H](c3ccoc3)C[C@]21C ; what solubility value has been reported?
45 µg/mL

###

- TEST SUMMARY: Solubility in cyclodextrin solutions (HPLC)
- CONDITION INFO: 20% 2-hydroxypropyl-β-cyclodextrin (HPBCD) in water, aqueous with cosolvent or surfactant or cyclodextrin, thermodynamic from solid, maximum concentration (solubility), HPBCD
REPORTED ENDPOINT: solubility

Suppose we examine the compound COC(=O)[C@@H]1C[C@H](OC(C)=O)C(=O)[C@H]2[C@@]1(C)CC[C@H]1C(=O)O[C@H](c3ccoc3)C[C@]21C ; what solubility value has been reported?
> 100 µg/mL

###

- TEST SUMMARY: Solubility in other solvents
- CONDITION INFO: water, thermodynamic from solid
REPORTED ENDPOINT: solubility

Suppose we examine the compound COC(=O)[C@@H]1C[C@H](OC(C)=O)C(=O)[C@H]2[C@@]1(C)CC[C@H]1C(=O)O[C@H](c3ccoc3)C[C@]21C ; what solubility value has been reported?
< 2 µg/mL

###

- TEST SUMMARY: Solubility in cyclodextrin solutions (HPLC)
- CONDITION INFO: 20% 2-hydroxypropyl-β-cyclodextrin (HPBCD) in water, aqueous with cosolvent or surfactant or cyclodextrin, thermodynamic from solid, solubility, 20% HPBCD
REPORTED ENDPOINT: solubility (µg/mL)
Numbers only; they are read as µg/mL.

Suppose we examine the compound COC(=O)[C@@H]1C[C@H](OC(C)=O)C(=O)[C@H]2[C@@]1(C)CC[C@H]1C(=O)O[C@H](c3ccoc3)C[C@]21C ; what solubility value has been reported?
122

###

- TEST SUMMARY: Solubility in cyclodextrin solutions (HPLC)
- CONDITION INFO: water, thermodynamic from solid, Concentration (solubility), 100% water; mean ± SD
REPORTED ENDPOINT: solubility (µg/mL)
Numbers only; they are read as µg/mL.

Suppose we examine the compound COC(=O)[C@@H]1C[C@H](OC(C)=O)C(=O)[C@H]2[C@@]1(C)CC[C@H]1C(=O)O[C@H](c3ccoc3)C[C@]21C ; what solubility value has been reported?
1

###

- TEST SUMMARY: Solubility in other solvents
- CONDITION INFO: glyceryl monocaprylate, oil or lipid, thermodynamic from solid
REPORTED ENDPOINT: solubility

Suppose we examine the compound COC(=O)[C@@H]1C[C@H](OC(C)=O)C(=O)[C@H]2[C@@]1(C)CC[C@H]1C(=O)O[C@H](c3ccoc3)C[C@]21C [Salvinorin A] ; what solubility value has been reported?
< 2 µg/mL

###

- TEST SUMMARY: Solubility in cyclodextrin solutions (HPLC)
- CONDITION INFO: 20% α-cyclodextrin sulfated sodium salt in water, aqueous with cosolvent or surfactant or cyclodextrin, thermodynamic from solid, Concentration (solubility), 20% α-Cyclodextrin sulfated sodium salt; mean ± SD
REPORTED ENDPOINT: solubility (µg/mL)
Numbers only; they are read as µg/mL.

Suppose we examine the compound COC(=O)[C@@H]1C[C@H](OC(C)=O)C(=O)[C@H]2[C@@]1(C)CC[C@H]1C(=O)O[C@H](c3ccoc3)C[C@]21C ; what solubility value has been reported?
1

###

- TEST SUMMARY: Solubility in cyclodextrin solutions (HPLC)
- CONDITION INFO: 20% β-cyclodextrin sulfated sodium salt in water, aqueous with cosolvent or surfactant or cyclodextrin, thermodynamic from solid, Concentration (solubility), 20% β-Cyclodextrin sulfated sodium salt; mean ± SD
REPORTED ENDPOINT: solubility
The reply must contain the numeric value and, after it, the unit.

Suppose we examine the compound COC(=O)[C@@H]1C[C@H](OC(C)=O)C(=O)[C@H]2[C@@]1(C)CC[C@H]1C(=O)O[C@H](c3ccoc3)C[C@]21C ; what solubility value has been reported?
1.5 µg/mL

###

- TEST SUMMARY: Solubility in other solvents
- CONDITION INFO: 1.25% Polysorbate 80 and […] Solutol HS15, aqueous with cosolvent or surfactant or cyclodextrin, thermodynamic from solid
REPORTED ENDPOINT: solubility (µg/mL)
Numbers only; they are read as µg/mL.

Suppose we examine the compound COC(=O)[C@@H]1C[C@H](OC(C)=O)C(=O)[C@H]2[C@@]1(C)CC[C@H]1C(=O)O[C@H](c3ccoc3)C[C@]21C ; what solubility value has been reported?
25

###

- TEST SUMMARY: Solubility in other solvents
- CONDITION INFO: N-methylpyrolidinone, organic solvent or mixture, thermodynamic from solid
REPORTED ENDPOINT: solubility

Suppose we examine the compound COC(=O)[C@@H]1C[C@H](OC(C)=O)C(=O)[C@H]2[C@@]1(C)CC[C@H]1C(=O)O[C@H](c3ccoc3)C[C@]21C [Salvinorin A] ; what solubility value has been reported?
> 10000 µg/mL

###

- TEST SUMMARY: Solubility in other solvents
- CONDITION INFO: 10% Tetraglycol, aqueous with cosolvent or surfactant or cyclodextrin, thermodynamic from solid
REPORTED ENDPOINT: solubility

Suppose we examine the molecule COC(=O)[C@@H]1C[C@H](OC(C)=O)C(=O)[C@H]2[C@@]1(C)CC[C@H]1C(=O)O[C@H](c3ccoc3)C[C@]21C ; what solubility value has been reported?
< 2 µg/mL

###

- TEST SUMMARY: Solubility in other solvents
- CONDITION INFO: 2-propanol, organic solvent or mixture, thermodynamic from solid
REPORTED ENDPOINT: solubility (µg/mL)
Numbers only; they are read as µg/mL.

Suppose we examine the compound COC(=O)[C@@H]1C[C@H](OC(C)=O)C(=O)[C@H]2[C@@]1(C)CC[C@H]1C(=O)O[C@H](c3ccoc3)C[C@]21C ; what solubility value has been reported?
22

###

- TEST SUMMARY: Solubility in other solvents
- CONDITION INFO: 10% bile salts, aqueous with cosolvent or surfactant or cyclodextrin, thermodynamic from solid
REPORTED ENDPOINT: solubility

Suppose we examine the compound COC(=O)[C@@H]1C[C@H](OC(C)=O)C(=O)[C@H]2[C@@]1(C)CC[C@H]1C(=O)O[C@H](c3ccoc3)C[C@]21C ; what solubility value has been reported?
< 2 µg/mL

###

- TEST SUMMARY: Solubility in other solvents
- CONDITION INFO: DMSO, organic solvent or mixture, thermodynamic from solid
REPORTED ENDPOINT: solubility

Suppose we examine the compound COC(=O)[C@@H]1C[C@H](OC(C)=O)C(=O)[C@H]2[C@@]1(C)CC[C@H]1C(=O)O[C@H](c3ccoc3)C[C@]21C ; what solubility value has been reported?
> 1000 µg/mL

###

- TEST SUMMARY: Solubility in other solvents
- CONDITION INFO: N,N-dimethylacetamide, organic solvent or mixture, thermodynamic from solid
REPORTED ENDPOINT: solubility

Suppose we examine the molecule COC(=O)[C@@H]1C[C@H](OC(C)=O)C(=O)[C@H]2[C@@]1(C)CC[C@H]1C(=O)O[C@H](c3ccoc3)C[C@]21C [Salvinorin A] ; what solubility value has been reported?
> 5000 µg/mL

###

REPORTED ENDPOINT: Ki
The reply must contain the numeric value and, after it, the unit.

Provide the documented Ki with cloned human mu receptor (Homo sapiens, UniProt P35372) as the system for COC(=O)[C@@H]1C[C@H](OC(=O)c2ccccc2)C(=O)[C@H]2[C@@]1(C)CC[C@H]1C(=O)O[C@H](c3ccoc3)C[C@]21C
Sequence (P35372 whole entry): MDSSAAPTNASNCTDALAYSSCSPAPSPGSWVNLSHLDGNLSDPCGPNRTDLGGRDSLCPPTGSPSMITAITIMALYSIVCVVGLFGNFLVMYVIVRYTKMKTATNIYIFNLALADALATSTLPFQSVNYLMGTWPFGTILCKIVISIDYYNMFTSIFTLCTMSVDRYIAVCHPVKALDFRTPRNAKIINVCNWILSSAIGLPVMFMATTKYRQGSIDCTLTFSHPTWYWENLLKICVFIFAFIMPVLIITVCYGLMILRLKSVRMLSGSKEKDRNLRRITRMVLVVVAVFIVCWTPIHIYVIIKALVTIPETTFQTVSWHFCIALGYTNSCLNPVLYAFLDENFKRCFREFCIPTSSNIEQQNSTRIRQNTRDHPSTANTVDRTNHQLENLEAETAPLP
45 nM
